assayed-target: FKBP51FK1 (Homo sapiens, UniProt Q13451)
Construct: FKBP51FK1
Sequence (Q13451 42-130 limits assumed): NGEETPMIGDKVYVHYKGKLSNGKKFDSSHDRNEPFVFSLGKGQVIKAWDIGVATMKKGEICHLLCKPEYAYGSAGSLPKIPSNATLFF
assay-info: Binding affinities of exemplary compounds to FKBP51
Description: Binding to FKBP51 is an important prerequisite in order to allow degradation of FKBP51. Thus, the binding affinities of the newly synthesized molecules (table 1) were tested.
readout-name: Ki (nM)
One number for each entry, in nM.

COc1cccc([C@@H](CCc2ccc(OCc3cn(CCOCCOCCOCCOCCOCC(=O)N[C@H](C(=O)N4C[C@H](O)C[C@H]4C(=O)NCc4ccc(-c5scnc5C)cc4)C(C)(C)C)nn3)c(OC)c2)OC(=O)[C@@H]2CCCCN2C(=O)[C@H](c2cc(OC)c(OC)c(OC)c2)C2CCCCC2)c1 [MTQ332]; 34

Now examine the next entry.
Ask: Look up Ki of COc1ccc(CC[C@H](OC(=O)[C@H]2CCCCN2C(=O)[C@H](c2cc(OC)c(OC)c(OC)c2)C2CCCCC2)c2cccc(OCc3cn(CCOCCOCCOCCOCC(=O)N[C@H](C(=O)N4C[C@H](O)C[C@H]4C(=O)NCc4ccc(-c5scnc5C)cc4)C(C)(C)C)nn3)c2)cc1OC (stereo in doubt) [MTQ202] and report it.
Result: 24

====

assayed-target: FKBP51FK1 (Homo sapiens, UniProt Q13451)
Construct: FKBP51FK1
assay-info: Binding affinities of exemplary compounds to FKBP51
I'd appreciate it if you could supply Ki values for the items below.
Give bare numbers, in nM.

Consider the following items and state reported Ki for each.
1. COc1cccc([C@@H](CCc2ccc(OCc3cn(CCOCCOCC(=O)Nc4cccc5c4C(=O)N(C4CCC(=O)NC4=O)C5=O)nn3)c(OC)c2)OC(=O)[C@@H]2CCCCN2C(=O)[C@H](c2cc(OC)c(OC)c(OC)c2)C2CCCCC2)c1 (stereo partly shown)
2. COc1ccc(CC[C@@H](OC(=O)[C@@H]2CCCCN2C(=O)[C@H](c2cc(OC)c(OC)c(OC)c2)C2CCCCC2)c2cccc(OCc3cn(CCOCCOCCOCCOCC(=O)Nc4cccc5c4C(=O)N(C4CCC(=O)NC4=O)C5=O)nn3)c2)cc1OC (stereo partly shown)
3. COc1cccc([C@H](CCc2ccc(OCc3cn(CCOCCOCC(=O)N[C@H](C(=O)N4C[C@H](O)C[C@H]4C(=O)NCc4ccc(-c5scnc5C)cc4)C(C)(C)C)nn3)c(OC)c2)OC(=O)[C@H]2CCCCN2C(=O)[C@H](c2cc(OC)c(OC)c(OC)c2)C2CCCCC2)c1
4. COc1cccc([C@H](CCc2ccc(OCc3cn(CCOCCOCCOCC(=O)N[C@H](C(=O)N4C[C@H](O)C[C@H]4C(=O)NCc4ccc(-c5scnc5C)cc4)C(C)(C)C)nn3)c(OC)c2)OC(=O)[C@H]2CCCCN2C(=O)[C@H](c2cc(OC)c(OC)c(OC)c2)C2CCCCC2)c1

Result:
1: 21; 2: 18; 3: 60; 4: 86

====

assayed-target: FKBP51FK1 (Homo sapiens)
Construct: FKBP51FK1
assay-info: Binding affinities of exemplary compounds to FKBP51
readout-name: Ki (nM)
Answers are plain numbers, in nM.

Look over these answered cases.
COc1ccc(CC[C@@H](OC(=O)[C@@H]2CCCCN2C(=O)[C@H](c2cc(OC)c(OC)c(OC)c2)C2CCCCC2)c2cccc(OCc3cn(CCOCCOCC(=O)Nc4cccc5c4C(=O)N(C4CCC(=O)NC4=O)C5=O)nn3)c2)cc1OC (some centres unmarked) [MTQ205]; 16
COc1ccc(CC[C@@H](OC(=O)[C@@H]2CCCCN2C(=O)[C@H](c2cc(OC)c(OC)c(OC)c2)C2CCCCC2)c2cccc(OCc3cn(CCOCC(=O)Nc4cccc5c4C(=O)N(C4CCC(=O)NC4=O)C5=O)nn3)c2)cc1OC (some centres unmarked) [MTQ204]; 19
COc1ccc(CC[C@@H](OC(=O)[C@@H]2CCCCN2C(=O)[C@H](c2cc(OC)c(OC)c(OC)c2)C2CCCCC2)c2cccc(OCc3cn(CCOCCOCC(=O)N[C@H](C(=O)N4C[C@H](O)C[C@H]4C(=O)NCc4ccc(-c5scnc5C)cc4)C(C)(C)C)nn3)c2)cc1OC [MTQ200]; 24
COc1ccc(CC[C@H](OC(=O)[C@H]2CCCCN2C(=O)[C@H](c2cc(OC)c(OC)c(OC)c2)C2CCCCC2)c2cccc(OCc3cn(CCOCCOCCOCC(=O)N[C@H](C(=O)N4C[C@H](O)C[C@H]4C(=O)NCc4ccc(-c5scnc5C)cc4)C(C)(C)C)nn3)c2)cc1OC [MTQ201]; 23

Ask: Provide Ki, tested on FKBP51FK1 (Homo sapiens), for COc1ccc(CC[C@H](OC(=O)[C@H]2CCCCN2C(=O)[C@H](c2cc(OC)c(OC)c(OC)c2)C2CCCCC2)c2cccc(OCc3cn(CCOCC(=O)N[C@H](C(=O)N4C[C@H](O)C[C@H]4C(=O)NCc4ccc(-c5scnc5C)cc4)C(C)(C)C)nn3)c2)cc1OC (stereo in doubt) [MTQ199] .
Result: 25
